Test: Selectivity index, ratio of IC50 for cytotoxicity against african green monkey vero cells to IC50 for antimalarial activity against Plasmodium falciparum 3D7
Assay type: toxicity, cell-based
Conditions: read-out: Ratio IC50
Reported selectivity ratio is given for each of the following molecules.

# Molecule, selectivity ratio
records = [
    ("COc1ccc(C(c2ccccc2O)N2CCN(c3cnccn3)CC2)cc1 (configuration not stated)", 58.1),
    ("Oc1ccccc1C(c1ccc(Cl)c(Cl)c1)N1CCN(c2cnccn2)CC1 (configuration not stated)", 356),
    ("COc1cccc(C(c2ccc(OC(F)(F)F)cc2)N2CCN(c3cnccn3)CC2)c1O (configuration not stated)", 286),
    ("Oc1ccccc1C(c1ccc(OC(F)(F)F)cc1)N1CCN(c2cnccn2)CC1 (configuration not stated)", 357),
    ("COc1cccc(C(c2ccc(C(F)(F)F)cc2)N2CCN(c3cnccn3)CC2)c1O (configuration not stated)", 328),
    ("Oc1ccccc1C(c1ccc(C(F)(F)F)cc1)N1CCN(c2cnccn2)CC1 (configuration not stated)", 562),
    ("COc1cccc(C(c2ccc(F)c(F)c2)N2CCN(c3cnccn3)CC2)c1O (configuration not stated)", 74.1),
]

----------
Assay: Selectivity index, ratio of IC50 for cytotoxicity against african green monkey vero cells to IC50 for antimalarial activity against Plasmodium falciparum W2
Type: toxicity, cell-based
Conditions: read-out: Ratio IC50
Please assign condition not met whenever selectivity ratio is at or above 300, and condition met whenever it is below.

# Compound, Label Value
rows = [
    ("COc1cccc(C(c2ccc(C(F)(F)F)cc2)N2CCN(c3cnccn3)CC2)c1O (configuration not stated)", "condition met"),
    ("COc1cccc(C(c2ccc(F)c(F)c2)N2CCN(c3cnccn3)CC2)c1O (configuration not stated)", "condition met"),
    ("COc1ccc(C(c2ccccc2O)N2CCN(c3cnccn3)CC2)cc1 (configuration not stated)", "condition not met"),
    ("Oc1ccccc1C(c1ccc(Cl)c(Cl)c1)N1CCN(c2cnccn2)CC1 (configuration not stated)", "condition met"),
    ("Oc1ccccc1C(c1ccc(C(F)(F)F)cc1)N1CCN(c2cnccn2)CC1 (configuration not stated)", "condition met"),
    ("COc1cccc(C(c2ccc(OC(F)(F)F)cc2)N2CCN(c3cnccn3)CC2)c1O (configuration not stated)", "condition not met"),
]

----------
Test system: Plasmodium falciparum
Assay: Antimalarial activity against Plasmodium falciparum W2 assessed as reduction in parasite growth incubated for 48 to 50 hrs by microplate reader analysis
Format: functional, organism-based
pIC50: −log10 of the molar value.
Binary classification by pIC50, with 5 as an inclusive lower bound for 1.0; all other cases are 0.0.

# Compound, Subject Of Test, Label Value
measured = [
    ("Oc1ccccc1C(c1ccc(C(F)(F)F)cc1)N1CCN(c2cnccn2)CC1 (stereo unspecified)", "Plasmodium falciparum", 0.0),
    ("COc1cccc(C(c2ccc(OC(F)(F)F)cc2)N2CCN(c3cnccn3)CC2)c1O (stereo unspecified)", "Plasmodium falciparum", 1.0),
    ("COc1cccc(C(c2ccc(C(F)(F)F)cc2)N2CCN(c3cnccn3)CC2)c1O (stereo unspecified)", "Plasmodium falciparum", 1.0),
    ("Oc1ccccc1C(c1ccc(Cl)c(Cl)c1)N1CCN(c2cnccn2)CC1 (stereo unspecified)", "Plasmodium falciparum", 1.0),
    ("Oc1ccccc1C(c1ccc(OC(F)(F)F)cc1)N1CCN(c2cnccn2)CC1 (stereo unspecified)", "Plasmodium falciparum", 1.0),
]
